We begin with a simple list: items and their reported inhibition.
- targetUnderTest: Large T antigen (Simian virus 40)
- testSummary: SV40 large T antigen inhibitors, biochemical (AID 1903)
- testContext: SV40 large T antigen ATPase/helicase inhibition assay; at 20 µM; active compounds read high
The whole screen tested about 310,000 compounds, of which about 1,200 (0.39%) were called active. Only a sample is shown. Potency and affinity values are given separately.
propertyMeasured: inhibition

>>> observedmeasurement("CC(/C=C1\\SC(=S)N(CC(=O)O)C1=O)=C\\c1ccccc1")
"19.5% (inactive)"
>>> observedmeasurement("Cn1nc(-c2ccccc2)nc1-c1ccccc1")
"11.2% (inactive)"
>>> observedmeasurement("CC(=C\\c1ccccc1)/C=C1/SC(=S)N(CCC(=O)O)C1=O")
"0.31% (inactive)"
>>> observedmeasurement("COc1ccc([C@@H]2CC=C(C(=O)O)[C@H](c3cccc(Cl)c3)N2S(=O)(=O)c2ccccc2C)cc1")
"20.5% (inactive)"
>>> observedmeasurement("COc1ccccc1Cn1cccc1C=O")
"-6.2% (inactive)"
>>> observedmeasurement("O=c1nc(-c2ccccc2)n(-c2ccccc2)[nH]1")
"-3.35% (inactive)"

* * *

We begin with a simple list: items and their reported inhibition.
- targetUnderTest: Large T antigen (Simian virus 40) (UniProt P03070)
- Sequence (P03070 whole entry, looked up): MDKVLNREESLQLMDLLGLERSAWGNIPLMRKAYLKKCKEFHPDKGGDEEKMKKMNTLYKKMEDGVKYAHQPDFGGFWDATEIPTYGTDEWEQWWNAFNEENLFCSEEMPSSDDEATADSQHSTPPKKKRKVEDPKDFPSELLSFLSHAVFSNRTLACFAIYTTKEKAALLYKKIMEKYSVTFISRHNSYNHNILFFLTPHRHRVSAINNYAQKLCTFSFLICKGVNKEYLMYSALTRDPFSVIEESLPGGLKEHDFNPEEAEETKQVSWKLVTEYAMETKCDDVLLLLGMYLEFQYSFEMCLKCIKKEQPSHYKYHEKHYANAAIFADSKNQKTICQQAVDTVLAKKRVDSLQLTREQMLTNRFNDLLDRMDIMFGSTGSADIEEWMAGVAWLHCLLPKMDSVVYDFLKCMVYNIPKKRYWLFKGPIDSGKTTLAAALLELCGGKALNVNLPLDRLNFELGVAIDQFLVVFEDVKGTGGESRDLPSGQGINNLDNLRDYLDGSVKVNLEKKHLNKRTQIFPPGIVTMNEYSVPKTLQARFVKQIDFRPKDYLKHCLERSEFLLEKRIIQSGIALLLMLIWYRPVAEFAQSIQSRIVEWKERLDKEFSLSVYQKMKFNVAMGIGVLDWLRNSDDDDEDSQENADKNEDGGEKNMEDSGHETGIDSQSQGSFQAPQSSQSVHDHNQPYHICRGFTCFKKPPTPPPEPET
- testSummary: SV40 large T antigen inhibitors, biochemical (AID 1903)
- testContext: SV40 large T antigen ATPase/helicase inhibition assay; at 20 µM; active compounds read high
In all, about 310,000 compounds went through this assay and about 1,200 (0.39%) were called active. Only a sample is shown. Potency and affinity values are given separately.
propertyMeasured: inhibition (%)

>>> observedmeasurement("Oc1ccc(Oc2ccc(Oc3ccc(O)cc3)cc2)cc1")
11.2
>>> observedmeasurement("C=C(c1ccc(O)cc1)c1ccc(O)cc1")
12.5
>>> observedmeasurement("COc1ccccc1CNCC(O)Cn1c2ccccc2c2ccccc21 (stereo unspecified)")
16
>>> observedmeasurement("CCC(Sc1ccccc1C(=O)O)C(=O)O (stereo unspecified)")
1.42
>>> observedmeasurement("COc1ccc(N(CC(=O)NCc2ccc(F)cc2)C(=O)c2snc(C(N)=O)c2N)cc1OC")
5.71
>>> observedmeasurement("O=C(O)c1ccccc1SSc1ccccc1C(=O)O")
1.77

* * *

- targetUnderTest: Large T antigen (Simian virus 40) (UniProt P03070)
- testSummary: SV40 large T antigen inhibitors, biochemical (AID 1903)
- testContext: SV40 large T antigen ATPase/helicase inhibition assay; at 20 µM; active compounds read high
Among all 310,000 compounds or so, about 1,200 (0.39%) were called active. Only a sample is shown. Results with a measured potency or affinity are listed apart.
propertyMeasured: inhibition (%)

>>> observedmeasurement("Cc1cccc(Nc2nc3c(S(=O)(=O)c4ccccc4)nnn3c3ccccc23)c1")
8.95
>>> observedmeasurement("Nc1ccc2nc(-c3ccc(-c4nc5ccc(N)cc5[nH]4)cc3)[nH]c2c1")
12.1
>>> observedmeasurement("CCOc1ccc(NC(=O)N2CCC(n3nnc4cc(C)ccc43)CC2)cc1")
-5.9
>>> observedmeasurement("Nc1ccc(OCCc2ccccc2)cc1")
30.9
>>> observedmeasurement("N#Cc1ccc(C(=O)Nc2cc(-c3ccccc3)nn2-c2ccccc2)cc1")
2.51
>>> observedmeasurement("Oc1ccc(-c2cn3c(n2)SCC3)cc1")
28.9
>>> observedmeasurement("COc1ccc(OC)c(S(=O)(=O)N2CCC(C(=O)N3CCc4ccccc4C3)CC2)c1")
-3.29
>>> observedmeasurement("CCOC(=O)c1[nH]c(C)c(C(=O)N2CCN(c3ccc(F)cc3)CC2)c1C")
27.5
>>> observedmeasurement("O=C(CCCC(=O)c1ccc(O)cc1)c1ccc(O)cc1")
9
>>> observedmeasurement("CCCCC(=O)c1ccc(O)cc1")
4.42
>>> observedmeasurement("COc1ccc(N(CC(=O)N2CCCC2)S(=O)(=O)c2ccc(NC(C)=O)cc2)cc1")
-2.23

* * *

- targetUnderTest: Large T antigen (Simian virus 40)
- testSummary: SV40 large T antigen inhibitors, biochemical (AID 1903)
- testContext: SV40 large T antigen ATPase/helicase inhibition assay; at 20 µM; active compounds read high
The campaign covered roughly 310,000 compounds. About 1,200 (0.39%) were called active. The list is a sample of the results. Potency and affinity values are given separately.
We begin with a simple list: items and their reported inhibition.
propertyMeasured: inhibition (%)

>>> observedmeasurement("NC(=O)C1CCN(C(=O)Cc2ccc([N+](=O)[O-])cc2)CC1")
21.5
>>> observedmeasurement("COc1ccc(/C=N/NC(=O)c2ccc3nc[nH]c3c2)cc1OC")
3.44
>>> observedmeasurement("COc1ccc(CN2CCN(C(=O)CCC(=O)Nc3nnc(C(F)(F)F)s3)CC2)cc1F")
25.2
>>> observedmeasurement("COC(=O)CCC(=O)Nc1ccc(N=Nc2ccccc2)cc1")
8.53
>>> observedmeasurement("Cc1c2ccccc2cc[n+]1CCCS(=O)(=O)[O-]")
7.97
>>> observedmeasurement("Cc1ccc(NC(=O)c2ccc(COc3ccccc3)o2)nc1")
-5.11
>>> observedmeasurement("COc1cc([N+](=O)[O-])ccc1NC(=O)Nc1cnccn1")
13.4
>>> observedmeasurement("COc1cc(/C=N/NC(=O)c2ccc3nc[nH]c3c2)cc(OC)c1OC")
8.71
>>> observedmeasurement("CN(C)CCN(C(=O)c1ccc(S(=O)(=O)N2CCc3ccccc32)cc1)c1nc2ccc(F)cc2s1")
14.4
>>> observedmeasurement("O=c1/c(=C/c2ccc(O)c([N+](=O)[O-])c2)sc2nc3ccccc3n12")
9.09
>>> observedmeasurement("CCC(=S)/C=C1\\Sc2ccc3ccccc3c2N1CCCS(=O)(=O)O")
18.3

* * *

- targetUnderTest: Large T antigen (Simian virus 40) (UniProt P03070)
- testSummary: SV40 large T antigen inhibitors, biochemical (AID 1903)
- testContext: SV40 large T antigen ATPase/helicase inhibition assay; at 20 µM; active compounds read high
Screen size: about 310,000 compounds; about 1,200 (0.39%) were called active. These entries were drawn from the full list. Potency and affinity values are given separately.
Assign class by inhibition: not lower than 10% means True; lower than 10% means False.

>>> assignedclass("O=c1c2ccccc2c(C=Nc2ccccc2O)c(O)n1-c1nccs1")
"True"
>>> assignedclass("CN1CCN(CCc2nc3cc(NC(=O)COc4ccc([N+](=O)[O-])cc4)ccc3n2C)CC1")
"True"
>>> assignedclass("CC(C)CN1C(=O)NC2(CCCc3ccccc32)C1=O (stereo not drawn)")
"True"
>>> assignedclass("COc1ccccc1N1CCN(c2nccc(C)n2)CC1")
"True"
>>> assignedclass("N#C/C(=C\\c1c[nH]c2ccccc12)C(N)=O")
"False"
>>> assignedclass("O=C(Cn1nc(-c2cccs2)ccc1=O)Nc1ccc(Br)cc1")
"False"
>>> assignedclass("CCN1CCN(C(=O)C2=CC(c3ccc(C)cc3)=NS(=O)(=O)N2C)CC1")
"True"
>>> assignedclass("FC(F)(F)c1ccccc1Nc1nccs1")
"False"
>>> assignedclass("CC(=O)c1cccc(NC(=S)NC(=O)c2ccccc2C)c1")
"False"
>>> assignedclass("Cc1ccc(CNC(=O)/C=C/c2ccc(S(=O)(=O)N3CCOCC3)cc2)cc1")
"False"
>>> assignedclass("O=C(Cc1c(Cl)cccc1Cl)N/N=C/c1cccnc1")
"True"
>>> assignedclass("CN(Cc1nc(-c2cnccn2)no1)CC(O)c1ccccc1 (stereo not drawn)")
"False"
>>> assignedclass("Cc1nsc(Nc2ccccc2)c1C#N")
"True"
>>> assignedclass("O=C1CCCN1c1nccs1")
"False"
>>> assignedclass("CCCCNC(=O)CCCCn1c(=S)[nH]c2c([nH]c3ccc(OC)cc32)c1=O")
"False"
>>> assignedclass("CCCNC(=O)CCCCn1c(=S)[nH]c2c([nH]c3ccc(OC)cc32)c1=O")
"True"
>>> assignedclass("Cc1cccc(C(=O)N[C@H](C(=O)NCCc2ccc(S(N)(=O)=O)cc2)C(C)C)c1")
"False"
>>> assignedclass("O=C(CSc1ccc(-c2ccccc2)nn1)c1cccs1")
"False"
>>> assignedclass("O=C(Cn1nnc(-c2ccccc2)n1)Nc1ccccc1N1CCOCC1")
"False"
>>> assignedclass("COc1cc(CN2CCCC(C(=O)Nc3ccccc3Oc3cccnc3)C2)ccc1F (stereo not drawn)")
"False"
>>> assignedclass("O=C(COc1ccc(Cl)cc1)NCc1nnc(SCC(=O)NC2CCCC2)o1")
"True"

* * *

- targetUnderTest: Large T antigen (Simian virus 40)
- testSummary: SV40 large T antigen inhibitors, biochemical (AID 1903)
- testContext: SV40 large T antigen ATPase/helicase inhibition assay; at 20 µM; active compounds read high
About 1,200 (0.39%) of roughly 310,000 compounds were called active. Not all results are given here. Potency and affinity values are given separately.
Assign class by inhibition: not lower than 10% means Yes; lower than 10% means No.

>>> assignedclass("O=C(CSc1nnc(-c2ccco2)c(-c2ccco2)n1)c1ccccc1")
"No"
>>> assignedclass("CCn1cc(/C=C/C(=O)Nc2ccn(Cc3c(F)c(F)c(F)c(F)c3F)n2)cn1")
"No"
>>> assignedclass("CCCc1ccc(S(=O)(=O)N/N=C\\c2ccc3c(c2)OCO3)cc1")
"Yes"
>>> assignedclass("CCOC(=O)c1c(C)nc2ccccc2c1-c1ccccc1")
"No"
>>> assignedclass("Cc1ccccc1NC(=O)NC1(C(=O)N2CCN(C)CC2)CCCCC1")
"No"
>>> assignedclass("O=C(Nc1ccc(N2CCOCC2)cc1)C1CCN(S(=O)(=O)c2ccccc2F)CC1")
"Yes"
>>> assignedclass("CCCN1C(=O)/C(=N\\OCC(=O)NC23CC4CC(CC(C4)C2)C3)c2ccccc21")
"Yes"
>>> assignedclass("CCOP(=O)(O)c1ccccc1OCCOCCOc1ccccc1P(=O)(O)OCC")
"No"
>>> assignedclass("Clc1ccc(-c2nc3ncccn3c2Nc2ccc3c(c2)OCO3)cc1")
"No"
>>> assignedclass("COc1ccc2c(c1)[nH]c1c(=O)n(CCC3=CCCCC3)cnc12")
"No"
>>> assignedclass("O=C(COC(=O)c1ccc(CO)cc1)Nc1ccc(OC(F)F)cc1")
"No"
>>> assignedclass("CCOc1ccc(N=Cc2ccc3ccccc3c2)cc1")
"Yes"
>>> assignedclass("O/N=C/c1ccc2ccccc2c1")
"Yes"
>>> assignedclass("COc1ccccc1C(=O)NNC(=O)c1ccc(NS(=O)(=O)c2cccs2)cc1")
"Yes"
>>> assignedclass("CCN(CC)c1ccc(CN(C(=O)c2ccco2)C2CCS(=O)(=O)C2)cc1 (stereo not drawn)")
"Yes"
>>> assignedclass("O=C1Nc2ccc(Br)cc2C1(O)c1ccc(F)cc1 (stereo not drawn)")
"No"
>>> assignedclass("COC(=O)c1ccc(S(=O)(=O)c2ccc(Cl)cc2)c(N)c1")
"Yes"
>>> assignedclass("Cc1ccc(COc2ccc(S(=O)(=O)N3CCCC3)cc2C(N)=O)cc1")
"No"
>>> assignedclass("Oc1ccc(-c2nc3ncccn3c2Nc2ccc3c(c2)OCCO3)cc1")
"Yes"
>>> assignedclass("COc1cccc(O)c1CN1CCCC(C(=O)c2cccc(C(F)(F)F)c2)C1 (stereo not drawn)")
"No"
>>> assignedclass("COc1ccc(-n2cnc3cc(C(=O)NCC4CCCO4)ccc32)cc1 (stereo not drawn)")
"No"
>>> assignedclass("CC(/C=N/NC(=O)c1sc(N)nc1C)=C\\c1ccccc1")
"Yes"
>>> assignedclass("CC(=O)c1cc2c(cc1N(C(=O)c1ccco1)C(C(=O)NC1CCCC1)c1ccccc1F)OCO2 (stereo not drawn)")
"No"
